observation type: melting point

Example entries begin here.
[[record]]
compound = "OCC1=C(c2ccc3sccc3c2)N2CCN=C2S1"
result = "149 to 150 °C"

[[record]]
compound = "COc1ccc2c(c1)C(CC#N)CN(C(=O)OC(C)(C)C)C2 (stereo unspecified)"
result = "75 to 77 °C"

[[record]]
compound = "c1ccc(NC2CCc3cccnc3C2)cc1 (stereo unspecified)"
result = "102 to 103 °C"

[[record]]
compound = "O=C1CSc2ccc(S(=O)(=O)Cc3c(Cl)cccc3Cl)cc2N1"
result = "244 to 246 °C"

[[record]]
compound = "O=C(O)c1cc2cc(F)c(C(F)(F)F)cc2[nH]1"
result = "178 to 180 °C"


Record `COC(=O)C1=C(N(c2ccccc2)c2ccccc2)CC(C(=O)OC)=C(N(c2ccccc2)c2ccccc2)C1` . Reported melting point: 236 to 238 °C

Record `O=[N+]([O-])c1ccc2oc(-c3sccc3CN3CCOCC3)nc2c1` . Reported melting point: 143 to 145 °C

Record `COc1ccc(S(=O)(=O)N(Cc2cccnc2)c2c(C(=O)O)cnc3cc(C)nn23)cc1` . Reported melting point: 249 to 251 °C

Record `CCCCc1n[nH]c(C(F)(F)CCC)n1` . Reported melting point: 92 to 93 °C

Record `COc1ccc(-c2cc(=O)c(C(=O)O)cn2C2CC2)cc1` . Reported melting point: 159 to 161 °C

Record `c1ccc(-c2ccc3nncn3n2)nc1` . Reported melting point: 191 to 192 °C

Record `CC(C)N1CCC(c2c[nH]c3ccc(NS(C)(=O)=O)cc23)CC1` . Reported melting point: 104 to 108 °C

Record `Cn1c(C(F)(F)F)cc(=O)n(-c2c(O)cc(Cl)cc2F)c1=O` . Reported melting point: 143 to 144 °C

Record CC1=CC(c2ccccc2Cl)C(c2nnco2)=C(C)N1 (stereo unspecified) . Reported melting point: 192 to 194 °C

Record Cc1nc(Cl)c2c(c1O)COC2CCc1ccccc1 (stereo unspecified) . Reported melting point: 193 °C

Record `CCCc1ccc(-c2ccn([C@H](CC(=O)OCc3ccccc3)C(=O)N[C@H](C(=O)NC)C(C)(C)C)c2)cc1` . Reported melting point: 63 to 65 °C

====

Catalogue of compounds with associated melting point

Example entries begin here.
[[record]]
compound = "COc1ccc(-n2nnc(-c3ccc(Cl)cc3C(F)(F)F)c2N)cc1"
observation_type = "melting point"
result = "159 to 160 °C"

[[record]]
compound = "CCOC(=O)C(C(=O)Nc1nccs1)C(=O)c1cccc(C(F)(F)F)c1NC(=O)C(Cl)Cl (stereo unspecified)"
observation_type = "melting point"
result = "90 °C"

[[record]]
compound = "Cc1nccc2c1[nH]c1cc(O)ccc12"
observation_type = "melting point"
result = "248 °C"


Record `CC(C)(O)Cn1c(CO)nc2c(N)nc3cc(-c4cccc(C(=O)N5CCCC5)c4)cnc3c21` . Reported melting point: 157 to 160 °C

Record O=C(NCCO)NCCCCC1CCSS1 (stereo unspecified) . Reported melting point: 50 to 65 °C

Record `COc1ccc(N2CCN(Cc3cnc(Cc4ccc(OC)c(OC)c4)c4cc(OC)c(OC)cc34)CC2)cc1` . Reported melting point: 176 to 177 °C

Reference for the values: a melting point compilation (Tetko et al.; mined from patent text by program, amines drawn as free bases though some values may be those of a salt)
